Entry source: patent US8703424B2

# Tested on: WA09 human embryonic stem (hES) cells
# assay name: PLS-DA prediction of teratogenicity from secretome of treated hES cells (Example 9)
# measurement conditions: DevTox pharmaceutical, low dose (L = 0.1x circulating dose)
Parameter: % Non (PLS-DA class probability non-teratogen). Scope: all listed entries.
metric: % Non (PLS-DA class probability non-teratogen)

compound: CN(C)CCOC(C)(c1ccccc1)c1ccccn1 (stereo not shown) [Doxylamine]
assay target: WA09 human embryonic stem (hES) cells
value: 0.58

compound: O=C1NS(=O)(=O)c2ccccc21 [Saccharin]
assay target: WA09 human embryonic stem (hES) cells
value: 0.75

compound: CC1(C)S[C@@H]2[C@H](NC(=O)Cc3ccccc3)C(=O)N2[C@H]1C(=O)O [PenicillinG]
assay target: WA09 human embryonic stem (hES) cells
value: 0.55

compound: NNC(=O)c1ccncc1 [Isoniazid]
assay target: WA09 human embryonic stem (hES) cells
value: 0.76

compound: CC1=C(/C=C/C(C)=C/C=C/C(C)=C/CO)C(C)(C)CCC1 [Retinol]
assay target: WA09 human embryonic stem (hES) cells
value: 0.75

compound: CN(C)CCOC(c1ccccc1)c1ccccc1 [Diphenhydramine]
assay target: WA09 human embryonic stem (hES) cells
value: 0.76

compound: CC1=C(/C=C/C(C)=C/C=C/C(C)=C/C(=O)O)C(C)(C)CCC1 [RetinoicAcid]
assay target: WA09 human embryonic stem (hES) cells
value: 0.3

compound: O=c1[nH]cc(F)c(=O)[nH]1 [5-Fluorouracil]
assay target: WA09 human embryonic stem (hES) cells
value: 0.28

compound: O=C1O[C@H]([C@@H](O)CO)C(O)=C1O [Ascorbic Acid]
assay target: WA09 human embryonic stem (hES) cells
value: 0.57

compound: O=P1(N(CCCl)CCCl)NCCCO1 (stereo not shown) [Cyclophosphamide]
assay target: WA09 human embryonic stem (hES) cells
value: 0.41

compound: NC(=O)N1c2ccccc2C=Cc2ccccc21 [Carbamazepine]
assay target: WA09 human embryonic stem (hES) cells
value: 0.5

compound: CN(Cc1cnc2nc(N)nc(N)c2n1)c1ccc(C(=O)N[C@@H](CCC(=O)O)C(=O)O)cc1 [Methotrexate]
assay target: WA09 human embryonic stem (hES) cells
value: 0.48

compound: CCCC(CCC)C(=O)O [VPA]
assay target: WA09 human embryonic stem (hES) cells
value: 0.43

compound: O=C1CCC(N2C(=O)c3ccccc3C2=O)C(=O)N1 (stereo not shown) [Thalidomide]
assay target: WA09 human embryonic stem (hES) cells
value: 0.65

compound: CC1=C(/C=C/C(C)=C/C=C/C(C)=C\C(=O)O)C(C)(C)CCC1 [Accutane]
assay target: WA09 human embryonic stem (hES) cells
value: 0.33

compound: N[C@@H](Cc1cc(I)c(Oc2cc(I)c(O)c(I)c2)c(I)c1)C(=O)O [Levothyroxine]
assay target: WA09 human embryonic stem (hES) cells
value: 0.69

compound: CS(=O)(=O)OCCCCOS(C)(=O)=O [Busulfan]
assay target: WA09 human embryonic stem (hES) cells
value: 0.29

compound: Cn1c(=O)c2c(ncn2C)n(C)c1=O [Caffeine]
assay target: WA09 human embryonic stem (hES) cells
value: 0.58

compound: Cc1ncc(C[n+]2csc(CCO)c2C)c(N)n1 [Thiamine]
assay target: WA09 human embryonic stem (hES) cells
value: 0.82

compound: Nc1nc2ncc(CNc3ccc(C(=O)N[C@@H](CCC(=O)O)C(=O)O)cc3)nc2c(=O)[nH]1 [Folic Acid]
assay target: WA09 human embryonic stem (hES) cells
value: 0.59

compound: CO[C@H]1/C=C/O[C@@]2(C)Oc3c(C)c(O)c4c(O)c(c(/C=N/N5CCN(C)CC5)c(O)c4c3C2=O)NC(=O)/C(C)=C\C=C\[C@H](C)[C@H](O)[C@@H](C)[C@@H](O)[C@@H](C)[C@H](OC(C)=O)[C@@H]1C [Rifampicin]
assay target: WA09 human embryonic stem (hES) cells
value: 0.46

compound: NC(=O)NO [Hydroxyurea]
assay target: WA09 human embryonic stem (hES) cells
value: 0.64

---

# Tested on: WA09 human embryonic stem (hES) cells
# assay name: PLS-DA prediction of teratogenicity from secretome of treated hES cells (Example 9)
# measurement conditions: DevTox pharmaceutical, high dose (H = 10x circulating dose)
metric: Prediction

compound: Cc1ncc(C[n+]2csc(CCO)c2C)c(N)n1
value: Non
--
compound: O=P1(N(CCCl)CCCl)NCCCO1 (stereo not drawn) [Cyclophosphamide]
value: Ter
--
compound: Nc1nc2ncc(CNc3ccc(C(=O)N[C@@H](CCC(=O)O)C(=O)O)cc3)nc2c(=O)[nH]1
value: Non
--
compound: O=C1O[C@H]([C@@H](O)CO)C(O)=C1O
value: Non
--
compound: CS(=O)(=O)OCCCCOS(C)(=O)=O
value: Ter
--
compound: NC(=O)NO [Hydroxyurea]
value: Ter
--
compound: CC1=C(/C=C/C(C)=C/C=C/C(C)=C/C(=O)O)C(C)(C)CCC1
value: Ter
--
compound: N[C@@H](Cc1cc(I)c(Oc2cc(I)c(O)c(I)c2)c(I)c1)C(=O)O
value: Non
--
compound: O=C1NS(=O)(=O)c2ccccc21
value: Non
--
compound: CCCC(CCC)C(=O)O
value: Ter
--
compound: CN(Cc1cnc2nc(N)nc(N)c2n1)c1ccc(C(=O)N[C@@H](CCC(=O)O)C(=O)O)cc1 [Methotrexate]
value: Ter
--
compound: NNC(=O)c1ccncc1
value: Non
--
compound: CC1=C(/C=C/C(C)=C/C=C/C(C)=C\C(=O)O)C(C)(C)CCC1
value: Ter
--
compound: O=C1CCC(N2C(=O)c3ccccc3C2=O)C(=O)N1 (stereo not drawn) [Thalidomide]
value: Ter
--
compound: CO[C@H]1/C=C/O[C@@]2(C)Oc3c(C)c(O)c4c(O)c(c(/C=N/N5CCN(C)CC5)c(O)c4c3C2=O)NC(=O)/C(C)=C\C=C\[C@H](C)[C@H](O)[C@@H](C)[C@@H](O)[C@@H](C)[C@H](OC(C)=O)[C@@H]1C
value: Ter
--
compound: CN(C)CCOC(C)(c1ccccc1)c1ccccn1 (stereo not drawn)
value: Ter
--
compound: CC1=C(/C=C/C(C)=C/C=C/C(C)=C/CO)C(C)(C)CCC1
value: Non
--
compound: O=c1[nH]cc(F)c(=O)[nH]1
value: Ter
--
compound: CN(C)CCOC(c1ccccc1)c1ccccc1 [Diphenhydramine]
value: Non
--
compound: NC(=O)N1c2ccccc2C=Cc2ccccc21 [Carbamazepine]
value: Ter
--
compound: CC1(C)S[C@@H]2[C@H](NC(=O)Cc3ccccc3)C(=O)N2[C@H]1C(=O)O
value: Non

---

# System: WA09 human embryonic stem (hES) cells
# assay name: PLS-DA prediction of teratogenicity from secretome of treated hES cells (Example 9)
# measurement conditions: DevTox pharmaceutical, high dose (H = 10x circulating dose)
# Confidence (difference between class probabilities) binned as interval 1: < 0.2; interval 2: ≥ 0.2 and < 0.4; interval 3: ≥ 0.4

compound: CN(Cc1cnc2nc(N)nc(N)c2n1)c1ccc(C(=O)N[C@@H](CCC(=O)O)C(=O)O)cc1 [Methotrexate]
assay target: WA09 human embryonic stem (hES) cells
cat: interval 1
--
compound: CCCC(CCC)C(=O)O [VPA]
assay target: WA09 human embryonic stem (hES) cells
cat: interval 2
--
compound: NC(=O)NO [Hydroxyurea]
assay target: WA09 human embryonic stem (hES) cells
cat: interval 2
--
compound: CS(=O)(=O)OCCCCOS(C)(=O)=O [Busulfan]
assay target: WA09 human embryonic stem (hES) cells
cat: interval 3
--
compound: O=C1NS(=O)(=O)c2ccccc21 [Saccharin]
assay target: WA09 human embryonic stem (hES) cells
cat: interval 3
--
compound: O=c1[nH]cc(F)c(=O)[nH]1 [5-Fluorouracil]
assay target: WA09 human embryonic stem (hES) cells
cat: interval 2
--
compound: NNC(=O)c1ccncc1 [Isoniazid]
assay target: WA09 human embryonic stem (hES) cells
cat: interval 1
--
compound: CC1(C)S[C@@H]2[C@H](NC(=O)Cc3ccccc3)C(=O)N2[C@H]1C(=O)O [PenicillinG]
assay target: WA09 human embryonic stem (hES) cells
cat: interval 1
--
compound: O=P1(N(CCCl)CCCl)NCCCO1 (stereo not shown) [Cyclophosphamide]
assay target: WA09 human embryonic stem (hES) cells
cat: interval 1
--
compound: CO[C@H]1/C=C/O[C@@]2(C)Oc3c(C)c(O)c4c(O)c(c(/C=N/N5CCN(C)CC5)c(O)c4c3C2=O)NC(=O)/C(C)=C\C=C\[C@H](C)[C@H](O)[C@@H](C)[C@@H](O)[C@@H](C)[C@H](OC(C)=O)[C@@H]1C [Rifampicin]
assay target: WA09 human embryonic stem (hES) cells
cat: interval 3
--
compound: NC(=O)N1c2ccccc2C=Cc2ccccc21 [Carbamazepine]
assay target: WA09 human embryonic stem (hES) cells
cat: interval 2
--
compound: CC1=C(/C=C/C(C)=C/C=C/C(C)=C/CO)C(C)(C)CCC1 [Retinol]
assay target: WA09 human embryonic stem (hES) cells
cat: interval 2
--
compound: N[C@@H](Cc1cc(I)c(Oc2cc(I)c(O)c(I)c2)c(I)c1)C(=O)O [Levothyroxine]
assay target: WA09 human embryonic stem (hES) cells
cat: interval 1
--
compound: Nc1nc2ncc(CNc3ccc(C(=O)N[C@@H](CCC(=O)O)C(=O)O)cc3)nc2c(=O)[nH]1 [Folic Acid]
assay target: WA09 human embryonic stem (hES) cells
cat: interval 1
--
compound: CN(C)CCOC(c1ccccc1)c1ccccc1 [Diphenhydramine]
assay target: WA09 human embryonic stem (hES) cells
cat: interval 3
--
compound: CN(C)CCOC(C)(c1ccccc1)c1ccccn1 (stereo not shown) [Doxylamine]
assay target: WA09 human embryonic stem (hES) cells
cat: interval 2
--
compound: Cn1c(=O)c2c(ncn2C)n(C)c1=O [Caffeine]
assay target: WA09 human embryonic stem (hES) cells
cat: interval 1
--
compound: Cc1ncc(C[n+]2csc(CCO)c2C)c(N)n1 [Thiamine]
assay target: WA09 human embryonic stem (hES) cells
cat: interval 3
--
compound: O=C1O[C@H]([C@@H](O)CO)C(O)=C1O [Ascorbic Acid]
assay target: WA09 human embryonic stem (hES) cells
cat: interval 1
